Test system: UACC-62
assay.protocol: NCI tumour cell line growth inhibition, 48 h
Active and inactive are the calls of the source. No stated cut-off is given here; in the data, active = GI50 up to about 1.1 µM and inactive = higher.
Use one of these outcomes when replying: 1 (yes) = active, 0 (no) = inactive

Check out these entries, answers already filled in.
[
  {
    "compound": "COC1(OC)C2(Cl)C(Cl)=C(Cl)C1(Cl)C1COCC12 (stereo unspecified)",
    "category": "0 (no)"
  },
  {
    "compound": "N/C(=N/O)N/N=C\\c1cc(Cl)cc(Cl)c1O",
    "category": "1 (yes)"
  },
  {
    "compound": "O=[N+]([O-])c1ccc(/N=N/N2CCCC2)cc1",
    "category": "0 (no)"
  },
  {
    "compound": "Cc1ccc(NC(=O)C(=O)Cc2cc[n+]([O-])cc2)cc1",
    "category": "0 (no)"
  },
  {
    "compound": "Cc1c2ccccc2c(C)c2c3c(ccc12)C(=O)C=CC3=O",
    "category": "0 (no)"
  },
  {
    "compound": "CC1(C)C[C@H](O)[C@H](O)[C@]23C(=O)O[C@H](O)[C@H]2C(C=O)=CC[C@@H]13",
    "category": "0 (no)"
  }
]

q: Per the records of this test, what outcome belongs to Cn1c2ccccc2c2c3c(c4c5ccccc5n(C)c4c21)C(=O)c1ccccc1C3=O ?
a: 0 (no)

q: Per the records of this test, what outcome belongs to O=c1c2ccccc2n2n1CC(O)C2 (stereo unspecified) ?
a: 1 (yes)

q: Per the records of this test, what outcome belongs to Cc1nc2c(O)nc3ccccc3c2o1 ?
a: 0 (no)

q: Per the records of this test, what outcome belongs to CCC1N2CCCCC2[C@@H]2c3[nH]c4ccccc4c3CCN12 (stereo partly specified) ?
a: 0 (no)

q: Per the records of this test, what outcome belongs to Cc1nc(Nc2ccc(Cl)c(Cl)c2)sc1C(=O)/C=C/c1ccc2c(c1)OCO2 ?
a: 0 (no)
